Biological target: Extracellular calcium-sensing receptor (Rattus norvegicus) (UniProt P48442)
Sequence (P48442 whole entry): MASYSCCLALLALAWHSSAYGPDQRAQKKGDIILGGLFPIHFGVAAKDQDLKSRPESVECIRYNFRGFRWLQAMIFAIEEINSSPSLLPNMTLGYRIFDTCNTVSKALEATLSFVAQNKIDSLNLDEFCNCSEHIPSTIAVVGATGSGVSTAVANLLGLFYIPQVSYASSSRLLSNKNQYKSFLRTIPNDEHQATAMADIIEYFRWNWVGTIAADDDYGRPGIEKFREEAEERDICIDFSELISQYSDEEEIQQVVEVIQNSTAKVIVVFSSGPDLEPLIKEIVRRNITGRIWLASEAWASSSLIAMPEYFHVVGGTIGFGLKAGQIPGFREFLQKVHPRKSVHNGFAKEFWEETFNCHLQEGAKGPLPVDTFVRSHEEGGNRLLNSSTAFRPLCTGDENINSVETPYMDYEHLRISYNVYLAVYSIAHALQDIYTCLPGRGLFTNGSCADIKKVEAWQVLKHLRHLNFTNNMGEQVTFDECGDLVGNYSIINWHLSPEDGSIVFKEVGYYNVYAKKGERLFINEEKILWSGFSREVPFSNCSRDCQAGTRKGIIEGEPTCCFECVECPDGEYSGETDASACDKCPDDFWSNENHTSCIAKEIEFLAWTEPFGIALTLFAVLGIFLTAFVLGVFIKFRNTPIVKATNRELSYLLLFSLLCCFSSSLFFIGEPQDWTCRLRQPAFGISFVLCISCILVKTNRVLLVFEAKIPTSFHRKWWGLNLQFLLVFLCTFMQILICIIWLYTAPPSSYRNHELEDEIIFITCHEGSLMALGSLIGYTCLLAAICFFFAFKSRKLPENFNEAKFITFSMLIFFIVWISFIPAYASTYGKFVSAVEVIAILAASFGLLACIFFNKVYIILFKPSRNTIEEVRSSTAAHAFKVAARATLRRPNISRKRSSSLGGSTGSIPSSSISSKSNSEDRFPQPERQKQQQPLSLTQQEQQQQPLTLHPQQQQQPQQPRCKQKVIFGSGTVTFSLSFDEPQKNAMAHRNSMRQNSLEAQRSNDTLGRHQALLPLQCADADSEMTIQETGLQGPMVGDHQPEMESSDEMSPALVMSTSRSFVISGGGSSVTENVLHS
Experiment: Agonist activity at rat CaSR expressed in CHO cells assessed as increase of calcium-induced inositol phosphate accumulation at 10 uM after 24 hrs by HTRF assay relative to calcium
Type: functional, cell-based
The entries below are paired with their reported Activity.

# Compound, Activity
data = [
    ("C[C@@H](NCC1NS(=O)(=O)c2ccccc21)c1cccc2ccccc12 (single isomer, unassigned; diastereomer 2)", "39%"),
    ("C[C@@H](NCC1Cc2ccccc2OS(=O)(=O)N1)c1cccc2ccccc12 (single isomer, unassigned; diastereomer 2)", "76%"),
    ("C[C@@H](NCC1Cc2ccccc2OS(=O)(=O)N1)c1cccc2ccccc12 (single isomer, unassigned; diastereomer 1)", "85%"),
    ("C[C@@H](N[C@H]1CNS(=O)(=O)c2ccccc21)c1cccc2ccccc12", "30%"),
    ("C[C@@H](NCC1Cc2ccccc2S(=O)(=O)N1)c1cccc2ccccc12 (single isomer, unassigned; diastereomer 2)", "69%"),
    ("C[C@@H](NC1CNS(=O)(=O)Oc2ccccc2C1)c1cccc2ccccc12 (single isomer, unassigned; diastereomer 2)", "17%"),
    ("C[C@@H](NCC1NS(=O)(=O)c2ccccc21)c1cccc2ccccc12 (single isomer, unassigned; diastereomer 1)", "57%"),
]

###

Molecular target: Extracellular calcium-sensing receptor (Rattus norvegicus) (UniProt P48442)
Test: Agonist activity at rat CaSR expressed in CHO cells assessed as increase of calcium-induced inositol phosphate accumulation at 10 uM after 24 hrs by HTRF assay relative to calcium
Type: functional, cell-based
The entries below are paired with their reported Activity.

# Molecule, Display Unit, Activity
measured = [
    ("C[C@@H](NCC1Cc2ccccc2S(=O)(=O)N1)c1cccc2ccccc12 (single isomer, unassigned; diastereomer 1)", "%", 71),
    ("C[C@@H](NC1CNS(=O)(=O)Oc2ccccc2C1)c1cccc2ccccc12 (single isomer, unassigned; diastereomer 1)", "%", 67),
    ("C[C@@H](N[C@@H]1CNS(=O)(=O)c2ccccc21)c1cccc2ccccc12", "%", 13),
    ("C[C@@H](NCC1CCc2ccccc2S(=O)(=O)N1)c1cccc2ccccc12 (single isomer, unassigned; diastereomer 1)", "%", 75),
    ("C[C@@H](NCC1CCc2ccccc2S(=O)(=O)N1)c1cccc2ccccc12 (single isomer, unassigned; diastereomer 2)", "%", 37),
    ("C[C@@H](NC[C@@H]1NS(=O)(=O)c2ccccc2-c2ccccc21)c1cccc2ccccc12", "%", 19),
    ("C[C@@H](NC[C@H]1NS(=O)(=O)c2ccccc2-c2ccccc21)c1cccc2ccccc12", "%", 29),
    ("C[C@@H](NCc1cc2ccccc2[nH]1)c1cccc2ccccc12", "%", 95),
]

All figures here come from ChEMBL document CHEMBL1800047.
